target: T1, DENV抗原 (DENV阳性血清) (dengue virus (DENV), serotype ); test: sandwich ELISA, antibody at 1.5625 ng/ml captured on goat anti-mouse IgG, DENV-positive serum, HRP-labelled DENV mAb
T1 construct: also called DENV antigen in DENV-positive serum
List of OD (450nm, 参考630nm) values.
Field: numeric (OD). Do not append units.

DF-5M32RMb1 (antibody, mouse IgG1, kappa, V domains shown, also called Anti-DF 5M32; Anti-DF 5M32单克隆抗体 (recombinant)) VH: QVQLQQSGAELARPGASVKLSCKASGYTFINYWMQWVKQRPGQGLEWIGAIYPGDGDTRYTQNFKGKAALTADKSSSTAYMQLSSLASEDSAVYYCATGTEGILDYWGQGTSVTVSS VL: DAVMTQTPLTLSVLIGQPASLSCKSSQSLLESDGKTYLNWLFQRPGQSPKRLIYLVSKLESGVPDRFTGSGSGTEFTLKISRVEAEDLGVYYCWQATHHPLTFGTGTNLELKR :: 0.654
DF-5M32RMb2 (antibody, mouse IgG1, kappa, V domains shown, also called DF-8F13RMb2) VH: QVQLQQSGAELARPGASVKLSCKASGYTFLNYWMQWVKQRPGQGLEWIGAIYPGDGDTRYTQNFKGKAALTADKSSSTAYMQLSSLASEDSAVYYCATGTEGLLDYWGQGTSVTVSS VL: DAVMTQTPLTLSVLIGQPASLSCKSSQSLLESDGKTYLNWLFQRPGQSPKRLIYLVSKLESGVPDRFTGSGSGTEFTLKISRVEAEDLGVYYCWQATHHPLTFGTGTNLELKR :: 0.603

Q: Tell me its OD (450nm, 参考630nm) given DF-5M32RMb3 (antibody, mouse IgG1, kappa, V domains shown, also called DF-8F13RMb3) VH: QVQLQQSGAELARPGASVKLSCKASGYTFLNYWMQWVKQRPGQGLEWIGAIYPGDGDTRYTQNFKGKAALTADKSSSTAYMQLSSLASEDSAVYYCATGTEGILDYWGQGTSVTVSS VL: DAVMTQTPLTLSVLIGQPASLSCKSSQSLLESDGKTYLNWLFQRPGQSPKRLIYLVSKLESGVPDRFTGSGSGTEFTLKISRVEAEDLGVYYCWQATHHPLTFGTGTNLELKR as the entry.
Result: 0.622

Q: Tell me its OD (450nm, 参考630nm) given DF-5M32RMb4 (antibody, mouse IgG1, kappa, V domains shown, also called DF-8F13RMb4) VH: QVQLQQSGAELARPGASVKLSCKASGYTFINYWMQWVKQRPGQGLEWIGAIYPGDGDTRYTQNFKGKAALTADKSSSTAYMQLSSLASEDSAVYYCATGTEGLLDYWGQGTSVTVSS VL: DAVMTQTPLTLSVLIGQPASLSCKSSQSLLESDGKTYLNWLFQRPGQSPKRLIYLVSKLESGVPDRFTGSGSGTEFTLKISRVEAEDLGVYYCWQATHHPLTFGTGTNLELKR as the entry.
Result: 0.631
